test system: Mycobacterium tuberculosis; assay: Antimycobacterial activity against isoniazid-, rifampin-, ofloxacin-, streptomycin-resistant Mycobacterium tuberculosis after 16 to 24 hrs by alamar blue assay; type: functional
The following compounds are listed with their measured MIC values.

CN[C@@H]1[C@H](O[C@H]2[C@H](O[C@H]3[C@H](O)[C@@H](O)[C@H](N=C(N)N)[C@@H](O)[C@@H]3N=C(N)N)O[C@@H](C)[C@]2(O)C=O)O[C@@H](CO)[C@H](O)[C@H]1O : ≥ 8 µg/mL
CC1COc2c(N3CCN(C)CC3)c(F)cc3c(=O)c(C(=O)O)cn1c23 (stereo not given) : ≥ 4 µg/mL
CC[C@@H](CO)NCCN[C@@H](CC)CO : ≤ 2 µg/mL
NNC(=O)c1ccncc1 : ≥ 2 µg/mL

Below: the item to evaluate.
Prompt: Complete the entry with MIC for CO[C@H]1/C=C/O[C@@]2(C)Oc3c(C)c(O)c4c(O)c(c(/C=N/N5CCN(C)CC5)c(O)c4c3C2=O)NC(=O)/C(C)=C\C=C\[C@H](C)[C@H](O)[C@@H](C)[C@@H](O)[C@@H](C)[C@H](OC(C)=O)[C@@H]1C
Completion: ≥ 2 µg/mL

----------
test system: Mycobacterium tuberculosis; experiment: Antimycobacterial activity against ethionamide-resistant Mycobacterium tuberculosis H37Rv ATCC 35830 after 16 to 24 hrs by alamar blue assay; assay type: functional
Reported metric: MIC (µg/mL)
Write the answer as a number in µg/mL, unit excluded.

COc1ccc2cc1-c1cc(ccc1O)C[C@H]1c3cc4c(cc3CCN1C)Oc1c(OC)cc3c(c1O4)[C@@H](C2)N(C)CC3 [TILIACORINE] : 3.1
COc1ccc2cc1-c1cc(ccc1O)C[C@H]1c3cc4c(cc3CCN1C)Oc1c(OC)cc3c(c1O4)[C@H](C2)N(C)CC3 [TILIACORININE] : 3.1
COc1ccc2cc1-c1cc(ccc1O)C[C@@H]1NCCc3cc4c(cc31)Oc1c(c(OC)cc3c1[C@H](C2)N(C)CC3)O4 : 6.2

Below: the item to evaluate.
Prompt: Complete the entry with MIC for COc1ccc2cc1-c1cc(cc(Br)c1O)C[C@H]1c3cc4c(cc3CCN1C)Oc1c(OC)cc3c(c1O4)[C@H](C2)N(C)CC3
Completion: 3.1

----------
The following molecules are listed with their measured MIC values.
tested on: Mycobacterium tuberculosis; assay: Antimycobacterial activity against isoniazid-, rifampin-, streptomycin-, ethambutol-resistant Mycobacterium tuberculosis after 16 to 24 hrs by alamar blue assay; format: functional

CC[C@@H](CO)NCCN[C@@H](CC)CO : ≥ 8 µg/mL
CO[C@H]1/C=C/O[C@@]2(C)Oc3c(C)c(O)c4c(O)c(c(/C=N/N5CCN(C)CC5)c(O)c4c3C2=O)NC(=O)/C(C)=C\C=C\[C@H](C)[C@H](O)[C@@H](C)[C@@H](O)[C@@H](C)[C@H](OC(C)=O)[C@@H]1C : ≥ 2 µg/mL
NNC(=O)c1ccncc1 : ≥ 2 µg/mL
CN[C@@H]1[C@H](O[C@H]2[C@H](O[C@H]3[C@H](O)[C@@H](O)[C@H](N=C(N)N)[C@@H](O)[C@@H]3N=C(N)N)O[C@@H](C)[C@]2(O)C=O)O[C@@H](CO)[C@H](O)[C@H]1O : ≥ 8 µg/mL

Below: the item to evaluate.
Prompt: Complete the entry with MIC for CC1COc2c(N3CCN(C)CC3)c(F)cc3c(=O)c(C(=O)O)cn1c23 (stereo not given)
Completion: ≤ 2 µg/mL
